# Test system: maximum electroshock seizure (MES) model
# Assay Info: Maximum electroshock seizure (MES) model test
# Assay type: in vivo, mice
# Condition Description: Mus musculus, po, 1 h, 50 mg/kg oral, Slc: ddY male mice, 3 per group, electrical stimulation 1 hour after administration; inhibition of hind limb extension; read-out: MES (positive number/tested number) (converted)
Measured responders at 50 mg/kg, listed per entry for reference.
# value in %; strip the unit string

Consider the reported responders at 50 mg/kg for these molecules:
{"columns": ["Molecule", "Subject Of Test", "responders at 50 mg/kg [%]"],
 "data": [
  ["NC(=O)Cc1c(F)cccc1-c1ccccc1 [Example 118, 2-(3-fluorobiphenyl-2-yl)acetamide]", "maximum electroshock seizure (MES) model", 100],
  ["NC(=O)C(F)(F)c1ccccc1-c1ccccc1 [Example 174, 2-(biphenyl-2-yl)-2,2-difluoroacetamide]", "maximum electroshock seizure (MES) model", 100],
  ["NC(=O)C(O)c1ccccc1-c1ccc(F)cc1 (centres unmarked)", "maximum electroshock seizure (MES) model", 33.3]
]}

-- ask Query responders at 50 mg/kg for CNC(=O)C(C)c1ccccc1-c1ccccc1 (centres unmarked) [Example 57, 2-(biphenyl-2-yl)-N-methyl propanamide]
-- reply 66.7

-- ask Supply responders at 50 mg/kg value. Item: NC(=O)C(F)(F)c1ccccc1-c1cccc(F)c1
-- reply 0

* * *

Recorded responders at 50 mg/kg for the following compounds
# System: maximum electroshock seizure (MES) model
# Assay Info: Maximum electroshock seizure (MES) model test
# Type: in vivo, mice
# Condition Description: Mus musculus, po, 1 h, 50 mg/kg oral, Slc: ddY male mice, 3 per group, electrical stimulation 1 hour after administration; inhibition of hind limb extension; read-out: MES (positive number/tested number) (converted)
I only need the number, in %, no unit after it.

{"columns": ["Compound", "responders at 50 mg/kg (%)"],
 "data": [
  ["NC(=O)Cc1ccccc1-c1cc(F)ccc1Cl", 66.7],
  ["COC(C(N)=O)c1ccccc1-c1cccc(Cl)c1 (stereo not drawn)", 33.3]
]}

Let's switch to this compound now.
-- ask Fetch value of responders at 50 mg/kg on maximum electroshock seizure (MES) model for CNC(=O)C1(c2ccccc2-c2ccccc2F)CC1 .
-- reply 33.3

* * *

Examples of compounds with documented responders at 50 mg/kg follow.
# Test system: subcutaneously pentetrazol-injected model (scPTZ)
# Assay Info: Subcutaneously pentetrazol-injected model (scPTZ) test
# Format: in vivo, mice
# Condition Description: Mus musculus, po, 1 h, 50 mg/kg oral, Slc: ddY male mice, 3 per group, pentetrazol 85 mg/kg s.c. after 1 hour, observed 30 minutes for clonic convulsion; read-out: scPTZ (positive number/tested number) (converted)
Express the result in % but write the number alone.

{"columns": ["Compound", "Subject Of Test", "responders at 50 mg/kg (%)"],
 "data": [
  ["NC(=O)Cc1ccccc1-c1cc(Cl)ccc1Cl [Example 95, 2-(2′,5′-dichlorobiphenyl-2-yl)acetamide]", "subcutaneously pentetrazol-injected model (scPTZ)", 0],
  ["CN(C)C(=O)Cc1ccccc1-c1ccccc1F [Example 30]", "subcutaneously pentetrazol-injected model (scPTZ)", 33.3],
  ["CC(C(N)=O)c1ccccc1-c1cccc(F)c1 (centres unmarked) [Example 175, 2-(3′-fluorobiphenyl-2-yl)propanamide]", "subcutaneously pentetrazol-injected model (scPTZ)", 0],
  ["NC(=O)C(F)(F)c1ccccc1-c1ccccc1 [Example 174, 2-(biphenyl-2-yl)-2,2-difluoroacetamide]", "subcutaneously pentetrazol-injected model (scPTZ)", 33.3],
  ["NC(=O)Cc1ccccc1-c1ccc(OC(F)(F)F)c(F)c1 [Example 70]", "subcutaneously pentetrazol-injected model (scPTZ)", 66.7]
]}

-- ask Give responders at 50 mg/kg for CCNC(=O)Cc1ccccc1-c1ccccc1C(F)(F)F [Example 8]
-- reply 0

-- ask Respond only with responders at 50 mg/kg recorded for NC(=O)Cc1cc(F)ccc1-c1cccc(Cl)c1 [Example 48]
-- reply 33.3

-- ask Kindly indicate its recorded responders at 50 mg/kg. Item: NC(=O)Cc1ccccc1-c1ccccc1F [Example 1, 2-(2′-Fluorobiphenyl-2-yl)acetamide]
-- reply 66.7

-- ask Query responders at 50 mg/kg for NC(=O)Cc1ccccc1-c1cccc(F)c1Cl [Example 86]
-- reply 33.3
